So I've got a bunch of molecules here, and I need their TGI values.
test system: K-562 leukemia; assay: NCI tumour cell line growth inhibition, 48 h
Where a SMILES comes first, the peptide text is derived from it. [ ]: non-standard residue; d: D form. The star is where a group is joined. AllylGly = C=CC[CH](N)C(=O)O; Boc = CC(C)(C)OC(=O)*; OtBu = CC(C)(C)O*

get_value(item= C=CCC(NC(=O)C(CC(=O)OC(C)(C)C)NC(=O)OC(C)(C)C)C(=O)OC (stereo not drawn) (Boc-Asp(OtBu)-[AllylGly]-OMe; configuration not given here) , readout=TGI) returns > 100 µM

get_value(item= COC(=O)C1(Cc2ccc3c(c2)CCC3)Cc2ccc3c(c2C1O)CCC3 (stereo not drawn) , readout=TGI) returns > 100 µM

get_value(item= COc1ccc(C(O)/C(=N\NC(N)=S)c2nc3ccc([N+](=O)[O-])cc3[nH]c2=O)cc1OC (stereo not drawn) , readout=TGI) returns > 100 µM

get_value(item= CCC(C)n1cc(C)c2c(C(=O)NCc3c(C)cc(C)[nH]c3=O)cc(Br)cc21 (stereo not drawn) , readout=TGI) returns > 100 µM

get_value(item= "COc1cc(C(=O)/C=C/c2cc(C(=O)c3cc(OC)c(OC)c(OC)c3)ccc2OC)ccc1N" , readout=TGI) returns > 100 µM

get_value(item= "CC(C)NC(=O)CN1CCN(C2=CC(=O)c3c(O)ccc(O)c3C2=O)CC1" , readout=TGI) returns > 100 µM

get_value(item= "COc1ccc2nc3cccc([N+](=O)[O-])c3c(NCCO)c2c1" , readout=TGI) returns 0.0181 µM

get_value(item= "CCCCCNc1nonc1N" , readout=TGI) returns > 100 µM

get_value(item= O=C(CC1(O)C(=O)Nc2ccccc21)c1ccccc1Cl (stereo not drawn) , readout=TGI) returns > 100 µM

get_value(item= COc1ccc(-c2csc(=Nc3ccccc3)n2CC(O)c2ccc([N+](=O)[O-])cc2)cc1 (stereo not drawn) , readout=TGI) returns > 100 µM

get_value(item= CN(C)c1ccc(C(=C2C=CC(=[N+](C)C)C=C2)c2ccc(N(C)C)cc2)cc1 (tested in a mixture with another compound) , readout=TGI) returns 2.86 µM

get_value(item= "O=c1oc2ccccc2c(O)c1C(c1ccco1)c1c(O)c2ccccc2oc1=O" , readout=TGI) returns > 100 µM

get_value(item= "Cc1cc2cc3cc(C)c(N(C)C)cc3nc2cc1N(C)C" , readout=TGI) returns > 100 µM

====

tested on: 786-0 renal; experiment: NCI tumour cell line growth inhibition, 48 h
property.label: TGI (µM)
Supply the numeric figure in µM, leaving out any unit text.

get_value(item= "CCNCC(=O)O[C@]1(CC)C(=O)OCc2c1cc1n(c2=O)Cc2cc3ccccc3nc2-1" , readout=TGI) returns 1.05

get_value(item= "C[C@H](Nc1c(O)c2c(c(O)c1Cl)C(=O)C=CC2=O)C(=O)Nc1ccc([N+](=O)[O-])cc1" , readout=TGI) returns 3.23

get_value(item= "NC(=NCCCOc1ccc(Cl)cc1)Nc1ccc(Cl)cc1" , readout=TGI) returns 6.67

get_value(item= CCNC1(c2cccc(C)c2)OC(C)(C)c2cccc3cccc1c23 (stereo not given) , readout=TGI) returns 37.6

get_value(item= "CC(=O)c1ccc(NC(=O)CSc2nnc(-c3cc(-c4ccc(C)cc4)nc4ccccc34)o2)cc1" , readout=TGI) returns 3.51

====

So I've got a bunch of compounds here, and I need their TGI values.
system: IGROV1 ovarian; assay: NCI tumour cell line growth inhibition, 48 h
Supply the numeric figure in µM, leaving out any unit text.

get_value(item= "CCCc1cc(=O)oc2c3c(c4c(c12)OC(C)(C)C=C4)O[C@@H](C)[C@H](C)C3=O" , readout=TGI) returns 28.4

get_value(item= "O=C/C(=C(/Br)I)c1ccccc1" , readout=TGI) returns 12.3

get_value(item= "CN1CN(c2ccccc2)C2(CCN(CCCSc3ccccc3NC(=O)/C=C/c3ccccc3)CC2)C1=O" , readout=TGI) returns 6.61

get_value(item= CC1(c2nc3cc(Cl)c(Cl)cc3[nH]2)CCC(CO)C(C)(C)O1 (stereo not given) , readout=TGI) returns 77.6

get_value(item= "C=C(C)[C@@H]1CC[C@]2(C)[C@H](C(=O)C=C3[C@@H]4C[C@](C)(C(=O)N5CCN(C)CC5)CC[C@]4(C)CC[C@]32C)[C@@]1(C)CCC#N" , readout=TGI) returns 14.6

====

test system: DMS 114 small cell lung; assay: NCI tumour cell line growth inhibition, 48 h
property.label: TGI

get_value(item= "COc1cc2c(c(C)c1O)[C@H]1COc3ccccc3[C@H]1O2" , readout=TGI) returns 47.6 µM

get_value(item= "C=C/C=C(\NC(=O)C(Cl)(Cl)Cl)[Si](C)(C)C" , readout=TGI) returns > 100 µM

get_value(item= "CCOC(=O)C(=O)Nc1ccc(C)cc1C" , readout=TGI) returns > 100 µM

get_value(item= "CCC[CH2][Sn]([CH2]CCC)([O]C(=O)c1cc(F)cc(F)c1)[O]C(=O)c1cc(F)cc(F)c1" , readout=TGI) returns 1.22 µM

get_value(item= CCn1cc(/C=C/C(C)c2cn(CC)c(=O)[nH]c2=O)c(=O)[nH]c1=O (stereo unspecified) , readout=TGI) returns > 100 µM

get_value(item= CCCC/C=C/C1Cc2ccccc2CN1S(=O)(=O)c1ccc(C)cc1 (stereo unspecified) , readout=TGI) returns 12.2 µM

get_value(item= COc1nc(SC)nc2c1cnn2C1OC(C(O)CO)C(OC)C1O (stereo unspecified) , readout=TGI) returns > 100 µM

get_value(item= CCCCC(C)C1CCC2(C)C=CC(=O)C(C)=C2C1O (stereo unspecified) , readout=TGI) returns > 100 µM

get_value(item= N#CC(C(=O)/C(=N\Nc1nc(=S)[nH]n1N)C(C#N)c1ccc(Cl)cc1)c1ccc(Cl)cc1 (stereo unspecified) , readout=TGI) returns > 100 µM

get_value(item= "CN(C)c1ccc(N=Cc2c([O-])ccc3ccccc23)cc1.[C-]#[O+].[C-]#[O+].[Ir]" , readout=TGI) returns 22.8 µM

get_value(item= Nc1nc(SCCNC(=O)CCc2ccc(O)cc2)nc2c1ncn2C1OC(CO)C(O)C1O (stereo unspecified) , readout=TGI) returns > 203 µM

get_value(item= CCC1=CC2CN3CCc4c([nH]c5ccccc45)C(C(=O)OC)(C2)C13 (stereo unspecified) , readout=TGI) returns 85.1 µM

get_value(item= COc1ccc(/C(=N/NC(=O)NN)C(c2ccc(OC)cc2)C2(O)CNc3c(Cl)cc(Cl)cc32)cc1 (stereo unspecified) , readout=TGI) returns > 100 µM

get_value(item= "Clc1ccc(SCCSCCCCCCCCCCSCCSc2ccc(Cl)cc2)cc1" , readout=TGI) returns > 100 µM

get_value(item= "O=C(CO)CC(=O)C(=O)Nc1nc([N+](=O)[O-])cs1" , readout=TGI) returns > 100 µM

get_value(item= "COc1cccc(NC(=S)Nn2c(C)nc3ccccc3c2=O)c1" , readout=TGI) returns > 100 µM

====

So I've got a bunch of compounds here, and I need their TGI values.
tested on: OVCAR-8 ovarian; assay: NCI tumour cell line growth inhibition, 48 h

get_value(item= COC1=CC(=O)[C@H]2[C@H](C)C(c3ccccc3)[C@@]2(C)C1=O (stereo partly drawn) , readout=TGI) returns > 100 µM

get_value(item= "O=C(/C=C/c1ccc(Cl)cc1)Oc1ccc(/C=C2\CCCCC2=O)cc1" , readout=TGI) returns > 100 µM

get_value(item= CC1(C2(C)OC(=O)c3ccccc32)OC(=O)c2ccccc21 (stereo not drawn) , readout=TGI) returns > 100 µM

get_value(item= "O=C(CO)CC(=O)C(=O)Nc1nc([N+](=O)[O-])cs1" , readout=TGI) returns > 100 µM

get_value(item= NS(=O)(=O)c1cc2c(cc1Cl)NC(Cc1ccccc1)NS2(=O)=O (stereo not drawn) , readout=TGI) returns > 100 µM

get_value(item= "COc1ccc(NC(=O)n2nc(N)c3ccccc32)cc1OC" , readout=TGI) returns > 100 µM

get_value(item= CC1=CC(=O)CCC2(C)C1CC[C@@H]2OC=O (stereo partly drawn) , readout=TGI) returns > 100 µM

get_value(item= "CCCCC(=O)Nc1ccc2cc(C(=O)OC)c(ON3C(=O)c4ccccc4C3=O)nc2n1" , readout=TGI) returns 58.4 µM

get_value(item= COC(=O)C1=C(C(=O)OC)C2(OC(C)=O)c3ccccc3-c3ccccc3C12 (stereo not drawn) , readout=TGI) returns 12.2 µM

get_value(item= "O=C/C(=C(/Br)I)c1ccccc1" , readout=TGI) returns 10.6 µM

get_value(item= CCCN(CCCC(NC(C)=O)C(=O)NCc1ccccc1)C(=O)NC (stereo not drawn) , readout=TGI) returns > 100 µM

get_value(item= "Cc1nc2sccn2c(=O)c1CCN1CCC(=C(c2ccc(F)cc2)c2ccc(F)cc2)CC1" , readout=TGI) returns 41 µM

get_value(item= O=C(CC1(O)C(=O)Nc2ccccc21)c1ccccc1Cl (stereo not drawn) , readout=TGI) returns > 100 µM

get_value(item= COCC1CCCN1c1ccc(/C=C(/C#N)C(N)=S)cc1 (stereo not drawn) , readout=TGI) returns > 100 µM

get_value(item= "CCCCCCOc1ccc(C(=O)NOCc2ccccc2)cc1" , readout=TGI) returns > 100 µM

get_value(item= "CC(C)CCOc1ccc(-c2n[nH]c(C(F)(F)F)c2-c2cncc(C#N)c2)c(O)c1" , readout=TGI) returns 19.1 µM

get_value(item= COC(=O)C1(Cc2ccc3c(c2)CCC3)Cc2ccc3c(c2C1O)CCC3 (stereo not drawn) , readout=TGI) returns 39.1 µM

get_value(item= "O=C(OCc1ccccc1)N1CCN(/[N+]([O-])=N/Oc2ccc([N+](=O)[O-])cc2[N+](=O)[O-])CC1" , readout=TGI) returns > 100 µM

get_value(item= "CCn1c2c(n(CC)c1=S)-c1c(n(CC)c(=S)n1CC)SSSS2" , readout=TGI) returns 23.3 µM

get_value(item= C1CCN(CCC2CCCCN2)CC1 (stereo not drawn) , readout=TGI) returns > 100 µM

get_value(item= "CC(C)NC(=O)CN1CCN(C2=CC(=O)c3c(O)ccc(O)c3C2=O)CC1" , readout=TGI) returns > 54 µM

get_value(item= "CC(=O)C(=[N+]=[N-])C(=O)OC(C)(C)C#N" , readout=TGI) returns > 10 µM

get_value(item= CCOC(=O)N1CCc2cc(OC)c(OC)c3c2C1CC3=O (stereo not drawn) , readout=TGI) returns > 100 µM
